Hello, the source for this data is patent US10323038B2, in case you need it.

Molecular target: FAAH (Mus musculus (Mouse), UniProt O08914)
Sequence (O08914 whole entry): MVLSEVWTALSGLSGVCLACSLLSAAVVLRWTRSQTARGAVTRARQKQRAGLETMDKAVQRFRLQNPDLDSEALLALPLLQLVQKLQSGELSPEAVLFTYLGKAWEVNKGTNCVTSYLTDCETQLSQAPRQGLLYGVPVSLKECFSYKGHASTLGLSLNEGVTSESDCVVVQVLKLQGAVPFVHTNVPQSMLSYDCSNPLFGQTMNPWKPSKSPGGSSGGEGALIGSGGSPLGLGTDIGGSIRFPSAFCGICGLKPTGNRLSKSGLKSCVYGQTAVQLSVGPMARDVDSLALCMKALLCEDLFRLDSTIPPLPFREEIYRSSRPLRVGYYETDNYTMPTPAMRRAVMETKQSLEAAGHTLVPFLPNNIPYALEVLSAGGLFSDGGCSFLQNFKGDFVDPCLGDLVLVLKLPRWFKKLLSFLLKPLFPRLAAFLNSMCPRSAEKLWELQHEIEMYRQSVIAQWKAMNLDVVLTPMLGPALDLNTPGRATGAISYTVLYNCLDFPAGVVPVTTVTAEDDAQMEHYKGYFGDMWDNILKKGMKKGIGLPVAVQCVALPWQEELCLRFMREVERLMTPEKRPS
Experiment: In vitro competitive activity-based protein profiling, FAAH (mouse)
Assay type: biochemical
Details: 1 μM, read-out: FAAH % inh. 1 μM (mouse)
observation-type: inhibition at 1 µM

compound="COc1cccc(CN2CCC3(CCN(C(=O)n4cc(N(C)C(C)=O)cn4)C3)C2)c1 (stereo not shown)" observation_type="inhibition at 1 µM" result="50 to 75%"
compound=CC(=O)N(C)c1cnn(C(=O)N2C[C@H]3C[C@@H](N(C)Cc4ccc(N5C6CCC5COC6)cc4C(F)(F)F)C[C@H]3C2)c1 observation_type="inhibition at 1 µM" result="≥ 75%"
compound=CC(=O)N(C)c1cnn(C(=O)N2CCC3(CC2)CN(Cc2ccc(N4CCOCC4)cc2)C3)c1 observation_type="inhibition at 1 µM" result="0 to 25%"
compound="CC(=O)N(C)c1cnn(C(=O)N2CCC3(CCN(Cc4ccc(C(F)(F)F)cc4)C3)C2)c1 (stereo not shown)" observation_type="inhibition at 1 µM" result="≥ 75%"
compound="CC(=O)N(C)c1cnn(C(=O)N2CC3CN(Cc4ccccc4Cl)CC3C2)c1 (stereo not shown)" observation_type="inhibition at 1 µM" result="≥ 75%"
compound="CS(=O)(=O)Nc1cnn(C(=O)N2CC3CN(Cc4ccc(Cl)cc4)CC3C2)c1 (stereo not shown)" observation_type="inhibition at 1 µM" result="≥ 75%"
compound="CC(=O)N(C)c1cnn(C(=O)N2CCC3(CCN(Cc4ccc(N5CCCC5)c(C(F)(F)F)c4)C3)C2)c1 (stereo not shown)" observation_type="inhibition at 1 µM" result="≥ 75%"
compound=CC(=O)N(C)c1cnn(C(=O)N2CCC3(CC2)CN(Cc2cccc(C)c2)C3)c1 observation_type="inhibition at 1 µM" result="≥ 75%"
compound="CC(=O)N(C)c1cnn(C(=O)N2CCC3(CCN(Cc4cc(N5CCCC5)ccc4C(F)(F)F)C3)C2)c1 (stereo not shown)" observation_type="inhibition at 1 µM" result="≥ 75%"
compound="CC(=O)N(C)c1cnn(C(=O)N2CC3CN(Cc4ccc(C)cc4)CC3C2)c1 (stereo not shown)" observation_type="inhibition at 1 µM" result="≥ 75%"
compound=CC(=O)N(C)c1cnn(C(=O)N2CC3(CCN(Cc4ccc(N5CCOCC5)cc4C)CC3)C2)c1 observation_type="inhibition at 1 µM" result="25 to 50%"
compound="CC(=O)N(C)c1cnn(C(=O)N2CC3CN(Cc4cc(Cl)cc(N5CCOCC5)c4)CC3C2)c1 (stereo not shown)" observation_type="inhibition at 1 µM" result="≥ 75%"
compound="CC(=O)N(C)c1cnn(C(=O)N2CC3CN(Cc4ccc(C(F)(F)F)c(N5CCCC5)c4)CC3C2)c1 (stereo not shown)" observation_type="inhibition at 1 µM" result="≥ 75%"
compound=CS(=O)(=O)Nc1cnn(C(=O)N2CCN(Cc3cc(Cl)ccc3C(F)(F)F)CC2)c1 observation_type="inhibition at 1 µM" result="≥ 75%"
compound="CC(=O)N(C)c1cnn(C(=O)N2CC3CN(Cc4cc(F)c(F)cc4F)CC3C2)c1 (stereo not shown)" observation_type="inhibition at 1 µM" result="≥ 75%"
compound="CC(=O)N(C)c1cnn(C(=O)N2CCC3(CCN(Cc4ccccc4N4CCCC4)C3)C2)c1 (stereo not shown)" observation_type="inhibition at 1 µM" result="0 to 25%"
compound=CC(=O)N(C)c1cnn(C(=O)N2CCC3(CC2)CN(Cc2cccc(F)c2)C3)c1 observation_type="inhibition at 1 µM" result="≥ 75%"
compound="CC(=O)N(C)c1cnn(C(=O)N2CCC3(CCN(Cc4ccc(C)cc4)C3)C2)c1 (stereo not shown)" observation_type="inhibition at 1 µM" result="50 to 75%"
compound=CC(=O)N(C)c1cnn(C(=O)N2C[C@H]3C[C@@H](N(C)Cc4ccc(N5CCCC5)c(C(F)(F)F)c4)C[C@H]3C2)c1 observation_type="inhibition at 1 µM" result="≥ 75%"
compound="CC(=O)N(C)c1cnn(C(=O)N2CCC3(CCN(Cc4ccc(-c5cnccn5)cc4Cl)C3)C2)c1 (stereo not shown)" observation_type="inhibition at 1 µM" result="≥ 75%"
compound=COc1cccc(CN2CCN(C(=O)n3cc(N(C)C(C)=O)cn3)CC2)c1 observation_type="inhibition at 1 µM" result="≥ 75%"
compound=CC(=O)N(C)c1cnn(C(=O)N2C[C@H]3C[C@@H](N(C)Cc4ccccc4Cl)C[C@H]3C2)c1 observation_type="inhibition at 1 µM" result="≥ 75%"
compound="CC(=O)N(C)c1cnn(C(=O)N2CCC3(CCN(Cc4cc(Cl)cc(N5CCOCC5)c4)C3)C2)c1 (stereo not shown)" observation_type="inhibition at 1 µM" result="≥ 75%"
compound="CC(=O)N(C)c1cnn(C(=O)N2CCC3(CCN(Cc4ccc(F)cc4)C3)C2)c1 (stereo not shown)" observation_type="inhibition at 1 µM" result="50 to 75%"
compound=CC(=O)N(C)c1cnn(C(=O)N2CCN(Cc3ccccc3N3CCCC3)CC2)c1 observation_type="inhibition at 1 µM" result="25 to 50%"
compound="CC(=O)N(C)c1cnn(C(=O)N2CC3CN(Cc4cccc(Oc5ccc(Cl)cc5)c4)CC3C2)c1 (stereo not shown)" observation_type="inhibition at 1 µM" result="≥ 75%"
compound=COc1cc(-c2ccccc2)ccc1CN1CCN(C(=O)n2cc(NS(C)(=O)=O)cn2)CC1 observation_type="inhibition at 1 µM" result="≥ 75%"
compound=CS(=O)(=O)Nc1cnn(C(=O)N2CCN(Cc3ccc(-c4ccncn4)cc3C(F)(F)F)CC2)c1 observation_type="inhibition at 1 µM" result="≥ 75%"
compound="CC(=O)N(C)c1cnn(C(=O)N2CC3CN(Cc4ccc(-c5ccncn5)cc4Cl)CC3C2)c1 (stereo not shown)" observation_type="inhibition at 1 µM" result="≥ 75%"
compound=CN(Cc1ccccc1C(F)(F)F)[C@H]1C[C@@H]2CN(C(=O)n3cc(NS(C)(=O)=O)cn3)C[C@@H]2C1 observation_type="inhibition at 1 µM" result="≥ 75%"
compound=CC(=O)N(C)c1cnn(C(=O)N2CCN(Cc3ccc(N4CCOCC4)cc3)CC2)c1 observation_type="inhibition at 1 µM" result="0 to 25%"
